Where these numbers come from: patent US20110082157A1

Target: 5HT2B (Homo sapiens, UniProt P41595)
Sequence (P41595 whole entry, species assumed): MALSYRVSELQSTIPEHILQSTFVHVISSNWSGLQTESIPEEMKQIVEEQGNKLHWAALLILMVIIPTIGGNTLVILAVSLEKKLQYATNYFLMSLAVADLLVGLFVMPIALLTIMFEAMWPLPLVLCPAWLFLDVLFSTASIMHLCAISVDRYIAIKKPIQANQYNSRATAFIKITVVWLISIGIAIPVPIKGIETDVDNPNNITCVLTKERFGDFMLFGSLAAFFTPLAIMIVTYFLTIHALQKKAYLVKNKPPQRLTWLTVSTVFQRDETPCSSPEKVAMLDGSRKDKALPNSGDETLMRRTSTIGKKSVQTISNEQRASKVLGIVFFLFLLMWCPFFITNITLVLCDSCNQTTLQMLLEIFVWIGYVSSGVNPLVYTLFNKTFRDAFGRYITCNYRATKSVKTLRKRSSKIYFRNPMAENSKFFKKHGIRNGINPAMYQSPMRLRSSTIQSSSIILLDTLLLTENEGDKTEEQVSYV
Assay: Functional activity IC50 (5HT2B antagonist)
Counter-ions that a name gives are not always drawn.
recorded-metric: IC50 (nM)
All answers are understood in nM, so give the number only.

compound | reading-unit | test-result
Fc1cccc(CN2CCC(Nc3ncnc4sc(Cl)cc34)CC2)c1.O=C(O)/C=C\C(=O)O | nM | 110
N#Cc1cc(CN2CCC(Nc3ncnc4sc(Cl)cc34)CC2)ccc1F | nM | 27
Cc1c(Cl)sc2ncnc(NC3CCN(Cc4cccc(F)c4)CC3)c12.O=C(O)/C=C\C(=O)O | nM | 560

[in] // lookup IC50 | system=5HT2B (Homo sapiens, UniProt P41595) | key= CC(C)c1cc2c(NC3CCN(Cc4cc(F)cc(F)c4)CC3)ncnc2s1 [Example B31, dihydrochloride]
[out] 830

[in] Next record, please: CC(C)c1cc2c(NC3CCN(Cc4cc(F)cc(F)c4)CC3)ncnc2s1 [Example B32]
[out] 450

[in] Next record, please: N#Cc1cccc(CN2CCC(Nc3ncnc4sc(Cl)cc34)CC2)c1 [Example B43, monomaleate]
[out] 17.5

[in] Next record, please: Fc1cc(F)cc(CN2CCC(Nc3ncnc4sc(Cl)cc34)CC2)c1.O=C(O)/C=C\C(=O)O
[out] 680

[in] Next record, please: CC(c1cc(F)cc(F)c1)N1CCC(Nc2ncnc3sc4c(c23)CCCC4)CC1 (stereo not shown) [Example B17, dihydrochloride]
[out] 1300

###

Target chain: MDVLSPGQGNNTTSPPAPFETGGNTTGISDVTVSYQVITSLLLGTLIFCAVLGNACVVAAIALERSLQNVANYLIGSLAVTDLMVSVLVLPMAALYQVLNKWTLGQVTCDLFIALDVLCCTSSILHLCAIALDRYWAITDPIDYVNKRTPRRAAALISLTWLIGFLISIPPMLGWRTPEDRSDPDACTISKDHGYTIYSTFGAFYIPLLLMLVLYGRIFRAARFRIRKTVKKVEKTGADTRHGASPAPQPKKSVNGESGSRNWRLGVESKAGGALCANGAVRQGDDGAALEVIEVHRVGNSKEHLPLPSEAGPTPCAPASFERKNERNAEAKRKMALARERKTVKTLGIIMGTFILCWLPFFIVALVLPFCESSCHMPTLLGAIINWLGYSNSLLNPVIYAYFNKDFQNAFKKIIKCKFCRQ
The compounds listed here are annotated with their Ki.
All answers are understood in nM, so give the number only.

Observe how each entry below is paired with its result.
compound | test-result
Fc1cccc(CN2CCC(Nc3ncnc4sc(Cl)cc34)CC2)c1.O=C(O)/C=C\C(=O)O | 17
Fc1cc(F)cc(CN2CCC(Nc3ncnc4sc(Cl)cc34)CC2)c1.O=C(O)/C=C\C(=O)O | 35

Now for another entry.
[in] Tell me the measured Ki of N#Cc1cccc(CN2CCC(Nc3ncnc4sc(Cl)cc34)CC2)c1 [Example B43, monomaleate] , please.
[out] 280

###

Target: UniProt P41595
Assay: 5HT2B binding (Ki of Biological Data Table)
Details: 100 nM
Where a name gives a salt, the structure may show the parent alone.
The compounds listed here are annotated with their % at 100 nM (5HT2B).
All answers are understood in %, so give the number only.

compound | target-under-test | test-result
Cc1csc2ncnc(NC3CCN(Cc4ccccc4)CC3)c12 [Example B9] | UniProt P41595 | 62
Oc1cc(C(F)(F)F)cnc1N1CCC(Nc2ncnc3scc(-c4ccccc4)c23)CC1 [Example B7] | UniProt P41595 | 4
N#Cc1cccc(CN2CCC(Nc3ncnc4sc5c(c34)CCCC5)CC2)c1 [Example B11, dihydrochloride] | UniProt P41595 | 101
c1ccc(CN2CCC(Nc3ncnc4sccc34)CC2)cc1 [Example B8] | UniProt P41595 | 62
CN1CCC(N(C)c2ncnc3sc4c(c23)CCCC4)CC1 [Example B5] | UniProt P41595 | 11

[in] Tell me the measured % at 100 nM (5HT2B) of c1ccc(CN2CCC(Nc3ncnc4scc(-c5ccccc5)c34)CC2)cc1 [Example B6] , please.
[out] 91
